Data provenance: patent US8450304B2

Consider the following compounds; for each one, report its IC50.
- target: CCR2 (Homo sapiens)
- Sequence (P41597 whole entry): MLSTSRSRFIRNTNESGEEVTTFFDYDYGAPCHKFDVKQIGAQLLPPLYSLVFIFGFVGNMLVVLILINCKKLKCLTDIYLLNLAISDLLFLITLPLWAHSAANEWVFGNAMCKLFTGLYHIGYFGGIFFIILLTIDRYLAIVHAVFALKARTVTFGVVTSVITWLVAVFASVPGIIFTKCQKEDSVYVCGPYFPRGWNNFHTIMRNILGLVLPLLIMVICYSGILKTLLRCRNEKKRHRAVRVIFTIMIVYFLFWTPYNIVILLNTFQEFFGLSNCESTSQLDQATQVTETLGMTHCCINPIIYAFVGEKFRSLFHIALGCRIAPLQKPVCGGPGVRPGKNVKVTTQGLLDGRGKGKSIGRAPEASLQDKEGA
- experiment-summary: MCP-1 Receptor Binding Assay in THP-1 Cells
- measurement-context: 0.5 nM 125I labeled MCP-1, 2 hours at 30° C., read-out: Inhibition of MCP-1 Binding IC50, CCR2 Binding
# value in nM; strip the unit string

Data request: Fill in reported IC50 for this entry: Cc1ccc(C2(O)CCC(N3CC(NC(=O)CNC(=O)c4cc(C(F)(F)F)ccc4Cl)C3)CC2)cn1 (single isomer, unassigned) [Example 70a]
Data returned: 590

Data request: Fill in reported IC50 for this entry: COc1ccc(C2(O)CCC(N3CC(NC(=O)CNC(=O)c4cc(F)c(F)c(F)c4)C3)CC2)cn1 (stereo not drawn)
Data returned: 6400

Data request: Fill in reported IC50 for this entry: O=C(CNC(=O)c1cccc(C(F)(F)F)c1)NC1CN(C2CCC(O)(c3ccc(Br)cn3)CC2)C1 (single isomer, unassigned) [Example 25a]
Data returned: 3100

Data request: Fill in reported IC50 for this entry: Cc1cc(C2(O)CCC(N3CC(NC(=O)CNC(=O)c4cccc(C(F)(F)F)c4)C3)CC2)sn1 (single isomer, unassigned) [Example 58a]
Data returned: 90

Data request: Fill in reported IC50 for this entry: O=C(CNC(=O)c1cccc(C(F)(F)F)c1)NC1CN(C2CCC(O)(c3cc(Br)cs3)CC2)C1 (stereo not drawn)
Data returned: 230

Data request: Fill in reported IC50 for this entry: O=C(CNC(=O)c1cccc(C(F)(F)F)c1)NC1CN(C2CCC(O)(c3cnc(N4CCCC4)s3)CC2)C1 (stereo not drawn)
Data returned: 3300
